Just for reference, the supplement of paper PMC11061612 is where these values come from.

molecules and their reported combination Emax
- Tested on: SK-MM-2 (Plasma Cell Myeloma)
- ASSAY TEXT: combination Emax (second highest fraction inhibited in the dose matrix, 72 h); higher = more inhibition; extreme values may be limits of the assay

MOLECULE	combination Emax
NC1(C(=O)N[C@@H](CCO)c2ccc(Cl)cc2)CCN(c2ncnc3[nH]ccc23)CC1 [Capivasertib] + CC(=O)c1c(C)c2cnc(Nc3ccc(N4CCNCC4)cn3)nc2n(C2CCCC2)c1=O [Palbociclib] (first compound max 10 µM, 7x7, partner max 10 µM)	0.409
NC1(C(=O)N[C@@H](CCO)c2ccc(Cl)cc2)CCN(c2ncnc3[nH]ccc23)CC1 [Capivasertib] + Cn1cnc2c(F)c(Nc3ccc(Br)cc3Cl)c(C(=O)NOCCO)cc21 [Selumetinib] (first compound max 10 µM, 7x7, partner max 10 µM)	0.36
COc1nnc2ccc(N3CCC(c4ccc(OCCN5CCN(C)C(=O)[C@H]5C)cc4)CC3)nn12 [AZD5153] + Cn1cnc2c(F)c(Nc3ccc(Br)cc3Cl)c(C(=O)NOCCO)cc21 [Selumetinib] (first compound max 1 µM, 7x7, partner max 10 µM)	0.963
CN(CCO)CC[C@H](CSc1ccccc1)Nc1ccc(S(=O)(=O)NC(=O)c2ccc(N3CCC([C@@H](O)c4ccccc4-c4ccc(Cl)cc4)CC3)cc2)cc1S(=O)(=O)C(F)(F)F [AZD4320] + C[C@@H]1COCCN1C2=NC(=NC(=C2)C3(CC3)[S@](=N)(=O)C)C4=C5C=CNC5=NC=C4 [AZD6738] (first compound max 1 µM, 7x7, partner max 10 µM)	1

---

- Tested on: Becker (Low Grade Glioma)
- ASSAY TEXT: combination Emax (second highest fraction inhibited in the dose matrix, 72 h); higher = more inhibition; extreme values may be limits of the assay
Each entry below carries its reported combination Emax.

MOLECULE	combination Emax
O=C(c1cc(Cc2n[nH]c(=O)c3ccccc23)ccc1F)N1CCN(C(=O)C2CC2)CC1 [Olaparib] + Cc1c2c(nn1C)CSCc1cc(n(C)n1)CSc1cc(c3ccccc3c1)OCCCc1c(C(=O)O)n(C)c3c-2c(Cl)ccc13 [AZD5991] (first compound max 10 µM, 7x7, partner max 1 µM)	0.22
CCN(CCO)CCCOc1ccc2c(Nc3cc(CC(=O)Nc4cccc(F)c4)[nH]n3)ncnc2c1 [AZD2811] + O=C(c1cc(Cc2n[nH]c(=O)c3ccccc23)ccc1F)N1CCN(C(=O)C2CC2)CC1 [Olaparib] (first compound max 1 µM, 7x7, partner max 10 µM)	0.12
C=CCn1c(=O)c2cnc(Nc3ccc(N4CCN(C)CC4)cc3)nc2n1-c1cccc(C(C)(C)O)n1 [AZD1775] + C1CN(CCC1(C(=O)N[C@@H](CCO)C2=CC=C(C=C2)Cl)N)C3=NC=NC4=C3C=CN4 [Capivasertib] (first compound max 3 µM, partner max 3 µM)	0.602
Cc1c2c(nn1C)CSCc1cc(n(C)n1)CSc1cc(c3ccccc3c1)OCCCc1c(C(=O)O)n(C)c3c-2c(Cl)ccc13 [AZD5991] + C[C@@H](Nc1cc(F)cc(F)c1)c1cc(C(=O)N(C)C)cc2c(=O)cc(N3CCOCC3)oc12 [AZD8186] (first compound max 1 µM, 7x7, partner max 3 µM)	0.462

---

- Tested on: SK-MM-2 (Plasma Cell Myeloma)
- ASSAY TEXT: Bliss excess, mean over the matrix (fraction); higher = more synergy
VALUE KIND: Bliss excess

COMPOUND	READING
COc1nnc2ccc(N3CCC(c4ccc(OCCN5CCN(C)C(=O)[C@H]5C)cc4)CC3)nn12 [AZD5153] + C[C@@H]1COCCN1C2=NC(=NC(=C2)C3(CC3)[S@](=N)(=O)C)C4=C5C=CNC5=NC=C4 [AZD6738] (first compound max 1 µM, 7x7, partner max 10 µM)	-0.0831
CN(CCO)CC[C@H](CSc1ccccc1)Nc1ccc(S(=O)(=O)NC(=O)c2ccc(N3CCC([C@@H](O)c4ccccc4-c4ccc(Cl)cc4)CC3)cc2)cc1S(=O)(=O)C(F)(F)F [AZD4320] + CCN(CCO)CCCOc1ccc2c(Nc3cc(CC(=O)Nc4cccc(F)c4)[nH]n3)ncnc2c1 [AZD2811] (first compound max 1 µM, 7x7, partner max 1 µM)	-0.0113

---

- Test system: AN3-CA (Endometrial Carcinoma)
- ASSAY TEXT: combination Emax (second highest fraction inhibited in the dose matrix, 72 h); higher = more inhibition; extreme values may be limits of the assay
VALUE KIND: combination Emax

MOLECULE	VALUE KIND	READING
CN(CCO)CC[C@H](CSc1ccccc1)Nc1ccc(S(=O)(=O)NC(=O)c2ccc(N3CCC([C@@H](O)c4ccccc4-c4ccc(Cl)cc4)CC3)cc2)cc1S(=O)(=O)C(F)(F)F [AZD4320] + C[C@@H]1COCCN1C2=NC(=NC(=C2)C3(CC3)[S@](=N)(=O)C)C4=C5C=CNC5=NC=C4 [AZD6738] (first compound max 1 µM, 7x7, partner max 10 µM)	combination Emax	0.637
C[C@@H](c1ccc2nccn2c1)n1nnc2ncc(-c3cnn(C)c3)nc21 [Savolitinib] + CC1(C)CCC(CN2CCN(c3ccc(C(=O)NS(=O)(=O)c4ccc(NCC5CCOCC5)c([N+](=O)[O-])c4)c(Oc4cnc5[nH]ccc5c4)c3)CC2)=C(c2ccc(Cl)cc2)C1 [Venetoclax] (first compound max 1 µM, 7x7, partner max 1 µM)	combination Emax	0.0904

---

- System: NCI-H1755 (Lung Adenocarcinoma)
- ASSAY TEXT: combination Emax (second highest fraction inhibited in the dose matrix, 72 h); higher = more inhibition; extreme values may be limits of the assay

MOLECULE	ASSAY SYSTEM	combination Emax
Cc1c2c(nn1C)CSCc1cc(n(C)n1)CSc1cc(c3ccccc3c1)OCCCc1c(C(=O)O)n(C)c3c-2c(Cl)ccc13 [AZD5991] + C=CCn1c(=O)c2cnc(Nc3ccc(N4CCN(C)CC4)cc3)nc2n1-c1cccc(C(C)(C)O)n1 [AZD1775] (first compound max 1 µM, partner max 1 µM)	NCI-H1755 (Lung Adenocarcinoma)	0.79
CN(CCO)CC[C@H](CSc1ccccc1)Nc1ccc(S(=O)(=O)NC(=O)c2ccc(N3CCC([C@@H](O)c4ccccc4-c4ccc(Cl)cc4)CC3)cc2)cc1S(=O)(=O)C(F)(F)F [AZD4320] + C[C@@H]1COCCN1C2=NC(=NC(=C2)C3(CC3)[S@](=N)(=O)C)C4=C5C=CNC5=NC=C4 [AZD6738] (first compound max 1 µM, 7x7, partner max 10 µM)	NCI-H1755 (Lung Adenocarcinoma)	0.831
COc1cc2ncnc(Nc3ccc(F)c(Cl)c3)c2cc1OCCCN1CCOCC1 [Gefitinib] + CC(C)n1c(=O)n(C)c2cnc3cc(F)c(-c4ccc(OCCCN5CCCCC5)nc4)cc3c21 [AZD1390] (first compound max 10 µM, 7x7, partner max 0.3 µM)	NCI-H1755 (Lung Adenocarcinoma)	0.264
COc1nnc2ccc(N3CCC(c4ccc(OCCN5CCN(C)C(=O)[C@H]5C)cc4)CC3)nn12 [AZD5153] + Cc1c2c(nn1C)CSCc1cc(n(C)n1)CSc1cc(c3ccccc3c1)OCCCc1c(C(=O)O)n(C)c3c-2c(Cl)ccc13 [AZD5991] (first compound max 1 µM, 7x7, partner max 1 µM)	NCI-H1755 (Lung Adenocarcinoma)	0.446
COc1cccc(OCCCN)c1-c1cc(Nc2cnc(C#N)cn2)n[nH]1 [Prexasertib] + C[C@@H]1COCCN1C2=NC(=NC(=C2)C3(CC3)[S@](=N)(=O)C)C4=C5C=CNC5=NC=C4 [AZD6738] (first compound max 1 µM, 7x7, partner max 10 µM)	NCI-H1755 (Lung Adenocarcinoma)	0.912
C[C@@H](Oc1cc(-c2cnn(C3CCNCC3)c2)cnc1N)c1c(Cl)ccc(F)c1Cl [Crizotinib] + CC1=C(C(=CC=C1)Cl)NC(=O)C2=CN=C(S2)NC3=CC(=NC(=N3)C)N4CCN(CC4)CCO [Dasatinib] (first compound max 10 µM, 7x7, partner max 2 µM)	NCI-H1755 (Lung Adenocarcinoma)	0.983
CN(CCO)CC[C@H](CSc1ccccc1)Nc1ccc(S(=O)(=O)NC(=O)c2ccc(N3CCC([C@@H](O)c4ccccc4-c4ccc(Cl)cc4)CC3)cc2)cc1S(=O)(=O)C(F)(F)F [AZD4320] + CS(=O)(=O)CCNCc1ccc(-c2ccc3ncnc(Nc4ccc(OCc5cccc(F)c5)c(Cl)c4)c3c2)o1 [Lapatinib] (first compound max 1 µM, 7x7, partner max 10 µM)	NCI-H1755 (Lung Adenocarcinoma)	0.702

---

- Tested on: Becker (Low Grade Glioma)
- ASSAY TEXT: combination Emax (second highest fraction inhibited in the dose matrix, 72 h); higher = more inhibition; extreme values may be limits of the assay

COMPOUND	combination Emax
CN(CCO)CC[C@H](CSc1ccccc1)Nc1ccc(S(=O)(=O)NC(=O)c2ccc(N3CCC([C@@H](O)c4ccccc4-c4ccc(Cl)cc4)CC3)cc2)cc1S(=O)(=O)C(F)(F)F [AZD4320] + Cc1cc2ncnn2cc1Nc1ncc2c(n1)n(C1CCOCC1)c(=O)n2C [AZD7648] (first compound max 1 µM, 7x7, partner max 10 µM)	0.124
COc1cccc(OCCCN)c1-c1cc(Nc2cnc(C#N)cn2)n[nH]1 [Prexasertib] + Cc1cc2ncnn2cc1Nc1ncc2c(n1)n(C1CCOCC1)c(=O)n2C [AZD7648] (first compound max 1 µM, 7x7, partner max 10 µM)	0.707
Cc1c2c(nn1C)CSCc1cc(n(C)n1)CSc1cc(c3ccccc3c1)OCCCc1c(C(=O)O)n(C)c3c-2c(Cl)ccc13 [AZD5991] + CS(=O)(=O)CCNCc1ccc(-c2ccc3ncnc(Nc4ccc(OCc5cccc(F)c5)c(Cl)c4)c3c2)o1 [Lapatinib] (first compound max 1 µM, 7x7, partner max 10 µM)	0.277
C[C@@H](Oc1cc(-c2cnn(C3CCNCC3)c2)cnc1N)c1c(Cl)ccc(F)c1Cl [Crizotinib] + CC1=C(C(=CC=C1)Cl)NC(=O)C2=CN=C(S2)NC3=CC(=NC(=N3)C)N4CCN(CC4)CCO [Dasatinib] (first compound max 10 µM, 7x7, partner max 2 µM)	0.648
